Target: estrogen receptor derived from bovine uterus (Bos taurus, UniProt P49884)
Sequence (P49884 1-596): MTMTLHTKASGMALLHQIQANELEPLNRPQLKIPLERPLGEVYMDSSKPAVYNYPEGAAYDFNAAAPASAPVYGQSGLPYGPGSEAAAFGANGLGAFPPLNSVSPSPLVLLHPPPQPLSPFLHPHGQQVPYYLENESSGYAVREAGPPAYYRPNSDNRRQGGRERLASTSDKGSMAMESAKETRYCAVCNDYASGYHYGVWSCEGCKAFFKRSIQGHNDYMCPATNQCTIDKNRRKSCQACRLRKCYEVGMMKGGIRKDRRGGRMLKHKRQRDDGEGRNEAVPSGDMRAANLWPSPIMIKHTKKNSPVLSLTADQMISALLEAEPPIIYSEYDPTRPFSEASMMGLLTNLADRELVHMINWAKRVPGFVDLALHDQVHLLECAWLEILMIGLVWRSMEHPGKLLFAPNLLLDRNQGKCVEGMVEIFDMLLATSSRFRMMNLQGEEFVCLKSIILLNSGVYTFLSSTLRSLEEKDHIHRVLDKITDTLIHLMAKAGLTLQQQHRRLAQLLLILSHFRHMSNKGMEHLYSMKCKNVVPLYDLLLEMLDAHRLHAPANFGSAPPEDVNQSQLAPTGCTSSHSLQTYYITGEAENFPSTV
OBSERVATION TYPE: Ki (nM)

Solved cases below.
>  <COMPOUND>
Oc1ccc(-c2nc3ccc(O)cc3s2)c(NCc2ccc(OCCN3CCCCC3)cc2)c1 [Example 319]

>  <Ki, nM>
1.6

$$$$
>  <COMPOUND>
CCN(Cc1ccc(OCCN2CCCCC2)cc1)c1cc(O)ccc1CC1CCc2cc(O)ccc2C1 (stereo not drawn) [Example 791]

>  <Ki, nM>
9.8

$$$$
>  <COMPOUND>
CCN(Cc1ccc(OCCN2CCCCCC2)cc1)c1cc(O)ccc1C1CCCc2cc(O)ccc2C1 (stereo not drawn) [Example 298]

>  <Ki, nM>
13

$$$$
>  <COMPOUND>
Oc1ccc2c(c1)CCC(c1ccc(O)cc1NCc1ccc(OCCN3CCCCC3)cc1)=C2 [Example 130]

>  <Ki, nM>
8.2

$$$$
>  <COMPOUND>
CCN(Cc1ccc(OCCN2CCCCCC2)nc1)c1cc(OC)ccc1[C@@H]1CCc2cc(O)ccc2C1 [Example 228]

>  <Ki, nM>
2.3

$$$$

1. ON=C1CCc2cc(-c3ccc(O)cc3Nc3ccc(OCCN4CCCCC4)cc3)ccc21 [Example 327]
2. CCN(Cc1ccc(OCCN2CCCCC2)c(F)c1)c1cc(O)ccc1[C@@H]1CCc2cc(O)ccc2C1 [188 (R)]
Problem: Form field 'greater Ki' accepts 1 or 2 ; which applies? Mark your answer with the label of the selected entry.
Solution: 1
(1: 42 nM, 2: 1.2 nM)

1. CCN(Cc1ccccc1)c1cc(O)ccc1C1CCc2cc(O)ccc2C1 (stereo not drawn) [Example 45]
2. CCN(Cc1ccc(OCCN2CCCCCC2)cc1)c1cc(O)ccc1C1CCN(c2cccc(O)c2)C1 (stereo not drawn) [Example 329]
3. CCN1CCN(CCOc2ccc(CN(CC)c3cc(O)ccc3C3CCc4cc(O)ccc4C3)cc2)CC1 (stereo not drawn) [Example 373]
4. CCN(Cc1ccc(OC2CC3CCC(C2)N3C)c(F)c1)c1cc(O)ccc1C1CCc2cc(O)ccc2C1 (stereo not drawn) [Example 367]
Problem: Sequence the entries by Ki, beginning with the highest number. Reply: labels, ordered per the request.
Solution: 2, 1, 3, 4
(2: 94 nM, 1: 8.4 nM, 3: 5 nM, 4: 1.8 nM)

A. CCn1ccc2c(O)ccc(C3CCc4cc(O)ccc4C3)c21 (stereo not drawn) [Example 55]
B. CC(C)N(CCOc1ccc(CCc2cc(O)ccc2C2CCc3cc(O)ccc3C2)cc1)C(C)C (stereo not drawn) [Example 357]
Problem: In the pair A and B , the larger recorded Ki belongs to which? Indicate your choice by writing its label.
Solution: A
(A: 84 nM, B: 8.2 nM)

P. COc1ccc([C@@H]2CCc3cc(O)ccc3C2)c(N(CCO)Cc2ccc(OCC(C)(C)N(C)C)cc2)c1 [Example 814]
Q. CN(Cc1ccc(OCCN2CCCCC2)cc1)c1cc(O)ccc1-c1ccc2cc(O)ccc2c1 [Example 113]
R. CCN(CC)c1cc(O)ccc1C1CCc2cc(O)ccc2C1 (stereo not drawn) [Example 44]
S. CCN(Cc1ccc(OCCN2CCCCCC2)cc1)c1cc(O)ccc1[C@@H]1CCc2cc(O)ccc2C1 [190 (R)]
T. CN(CCc1ccc(O)cc1)c1cc(O)ccc1C1CCc2cc(O)ccc2C1 (stereo not drawn) [Example 48]
Problem: Hello, I need these entries ordered by Ki, highest reading first. Thanks! Lab note: record answer as labels in requested order.
Solution: R, T, P, Q, S
(R: 21 nM, T: 13 nM, P: 8.4 nM, Q: 1.6 nM, S: 1 nM)
